Origin of the recorded values: paper PMC6544242

- test conditions: human, 6 h, 1500 ng/mL
measured metric: % from freshly prepared samples (%)
The response must be a number in % with no trailing unit.

O=C(C1CCCCC1)N1CCN(c2nc(=O)c3cc(C(F)(F)F)cc([N+](=O)[O-])c3s2)CC1
-5
O=c1nc(N2CCN(CC3CCCCC3)CC2)sc2c([N+](=O)[O-])cc(C(F)(F)F)cc12
-7

Given the entry O=c1nc(N2CCN(CC3CCCC(O)C3)CC2)sc2c([N+](=O)[O-])cc(C(F)(F)F)cc12 (stereo not drawn) , report its measured % from freshly prepared samples.
-4

Can you handle O=c1nc(N2CCN(CC3(O)CCCCC3)CC2)sc2c([N+](=O)[O-])cc(C(F)(F)F)cc12 next?
-2

Can you handle O=C1CCCC(CN2CCN(c3nc(=O)c4cc(C(F)(F)F)cc([N+](=O)[O-])c4s3)CC2)C1 (stereo not drawn) next?
-4

Can you handle O=c1nc(N2CCN(CC3CCCCC3O)CC2)sc2c([N+](=O)[O-])cc(C(F)(F)F)cc12 (stereo not drawn) next?
-4

---

- test conditions: human, 4 h, 20 ng/mL
measured metric: % from t0 (%)
The response must be a number in % with no trailing unit.

O=c1nc(N2CCN(CC3CCCCC3O)CC2)sc2c([N+](=O)[O-])cc(C(F)(F)F)cc12 (stereo not drawn) [Met 2-OH]
-2
O=C(C1CCCCC1)N1CCN(c2nc(=O)c3cc(C(F)(F)F)cc([N+](=O)[O-])c3s2)CC1 [Met oxo]
0

Given the entry O=c1nc(N2CCN(CC3CCCC(O)C3)CC2)sc2c([N+](=O)[O-])cc(C(F)(F)F)cc12 (stereo not drawn) [Met 3-OH] , report its measured % from t0.
12

Can you handle O=c1nc(N2CCN(CC3(O)CCCCC3)CC2)sc2c([N+](=O)[O-])cc(C(F)(F)F)cc12 [Met 1-OH] next?
0

Can you handle O=C1CCCC(CN2CCN(c3nc(=O)c4cc(C(F)(F)F)cc([N+](=O)[O-])c4s3)CC2)C1 (stereo not drawn) [Met 3-oxo] next?
-15

Can you handle O=c1nc(N2CCN(CC3CCCCC3)CC2)sc2c([N+](=O)[O-])cc(C(F)(F)F)cc12 [PBTZ169, macozinone] next?
-1

---

As shown below, each of these compounds has a reported % from freshly processed samples (n=2) value.
- test conditions: human, 6 h, 2000 ng/mL

Given the entry O=c1nc(N2CCN(CC3CCCCC3)CC2)sc2c([N+](=O)[O-])cc(C(F)(F)F)cc12 [PBTZ169, macozinone] , report its measured % from freshly processed samples (n=2).
-1%

---

- test conditions: processed extract sample, 4°C, 24h, level L (QC 2 ng/mL)
As shown below, each of these compounds has a reported % from t0 value.

// worked examples, % from t0 included
O=c1nc(N2CCN(CC3(O)CCCCC3)CC2)sc2c([N+](=O)[O-])cc(C(F)(F)F)cc12
-12%
O=C(C1CCCCC1)N1CCN(c2nc(=O)c3cc(C(F)(F)F)cc([N+](=O)[O-])c3s2)CC1
-3%
O=c1nc(N2CCN(CC3CCCC(O)C3)CC2)sc2c([N+](=O)[O-])cc(C(F)(F)F)cc12 (stereo not drawn)
-14%
O=c1nc(N2CCN(CC3CCCCC3)CC2)sc2c([N+](=O)[O-])cc(C(F)(F)F)cc12
5%
O=C1CCCC(CN2CCN(c3nc(=O)c4cc(C(F)(F)F)cc([N+](=O)[O-])c4s3)CC2)C1 (stereo not drawn)
-14%

Next compound, % from t0 to be filled in.
Given the entry O=c1nc(N2CCN(CC3CCCCC3O)CC2)sc2c([N+](=O)[O-])cc(C(F)(F)F)cc12 (stereo not drawn) , report its measured % from t0.
-16%
